Hi there, I'd appreciate the recorded IC50 for every entry that follows.
biological target: T1, mouse albumin (mouse, UniProt P07724 25-608); test: SA08b competition ELISA
T1 construct: bought (Sigma); also called MSA; MuSA
T1 sequence (P07724 25-608 limits assumed): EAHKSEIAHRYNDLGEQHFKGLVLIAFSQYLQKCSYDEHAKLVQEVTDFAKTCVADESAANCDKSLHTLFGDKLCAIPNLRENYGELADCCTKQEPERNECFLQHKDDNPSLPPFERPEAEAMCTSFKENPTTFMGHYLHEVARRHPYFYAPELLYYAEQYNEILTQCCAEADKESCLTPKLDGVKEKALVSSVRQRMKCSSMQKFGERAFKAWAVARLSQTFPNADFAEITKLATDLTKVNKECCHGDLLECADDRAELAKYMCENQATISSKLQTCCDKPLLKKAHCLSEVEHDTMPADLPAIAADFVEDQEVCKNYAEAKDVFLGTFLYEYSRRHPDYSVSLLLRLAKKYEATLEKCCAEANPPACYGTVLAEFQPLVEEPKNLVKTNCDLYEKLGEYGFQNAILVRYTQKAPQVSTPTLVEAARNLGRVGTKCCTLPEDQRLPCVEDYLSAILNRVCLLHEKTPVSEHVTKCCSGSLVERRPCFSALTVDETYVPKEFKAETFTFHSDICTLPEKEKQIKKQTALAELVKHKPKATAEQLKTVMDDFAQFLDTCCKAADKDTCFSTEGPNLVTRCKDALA
Bridges are numbered along the chain shown (N, C = ends). Where no end group is shown, it is not given here.

Ac-MEDICLPRWGCLWED-NH2 (disulfide 5-11 (inferred), synthetic; disulfide oxidised) [SA12]
13 nM
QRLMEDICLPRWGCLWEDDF-NH2 (disulfide 8-14, synthetic; disulfide oxidised) [SA06]
8 nM
Ac-EDICLPRWGCLWEDD-NH2 (disulfide 4-10 (inferred), synthetic; disulfide oxidised) [SA09]
6 nM
Ac-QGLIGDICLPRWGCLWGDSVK-NH2 (disulfide 8-14 (inferred), synthetic; disulfide oxidised) [SA08]
10 nM

Hey, can you go through the list below and give me IC50 for every item?
1. MEDICLPRWGCLWED-NH2 (disulfide 5-11 (inferred), synthetic; disulfide oxidised) [SA05]
2. Ac-MEDICLPRWGCLWEDD-NH2 (disulfide 5-11 (inferred), synthetic; disulfide oxidised) [SA11]

A)
["6 nM", "17 nM"]
